assay.system: T1, full-length beta-Catenin (Uniprot ID P35222) (Homo sapiens (Human), UniProt P35222 1-781)
T1 construct: also called bCat; B-Catenin
T1 sequence: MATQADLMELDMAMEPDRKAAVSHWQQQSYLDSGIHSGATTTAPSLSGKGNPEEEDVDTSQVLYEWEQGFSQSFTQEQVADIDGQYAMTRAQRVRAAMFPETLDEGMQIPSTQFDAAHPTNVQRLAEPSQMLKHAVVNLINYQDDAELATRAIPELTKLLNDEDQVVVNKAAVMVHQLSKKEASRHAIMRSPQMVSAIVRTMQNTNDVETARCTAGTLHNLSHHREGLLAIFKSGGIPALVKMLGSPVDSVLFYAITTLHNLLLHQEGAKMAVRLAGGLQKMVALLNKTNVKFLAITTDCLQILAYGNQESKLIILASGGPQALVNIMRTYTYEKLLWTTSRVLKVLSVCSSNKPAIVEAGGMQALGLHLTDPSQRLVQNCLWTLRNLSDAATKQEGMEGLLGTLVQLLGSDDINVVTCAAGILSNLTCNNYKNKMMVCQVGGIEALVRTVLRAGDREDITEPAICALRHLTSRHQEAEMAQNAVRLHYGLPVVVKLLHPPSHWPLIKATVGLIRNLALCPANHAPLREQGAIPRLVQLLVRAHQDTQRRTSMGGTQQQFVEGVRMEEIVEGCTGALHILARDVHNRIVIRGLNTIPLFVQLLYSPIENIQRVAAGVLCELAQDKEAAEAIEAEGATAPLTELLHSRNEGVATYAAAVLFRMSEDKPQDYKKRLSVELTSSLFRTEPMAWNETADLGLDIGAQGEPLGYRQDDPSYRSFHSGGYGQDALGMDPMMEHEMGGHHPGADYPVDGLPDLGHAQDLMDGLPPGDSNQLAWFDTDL
procedure.summary: FP competition: full-length beta-catenin 10 nM + 5FAM-TCF4(10-53) 10 nM
Starred links: 1 amine or outer side, 2 acyl side, 3 side chain; linkers in the order of their positions; H or OH if unused. Positions of bridges follow the written chain, without caps; N, C: chain ends. Non-standard residues stand in square brackets, D forms with d. Primed or numbered codes have the meaning given here. B5(20) = 2-amino-2-(pent-4-en-1-yl)hept-6-enoic acid = bis(4-pentenyl)glycine, stitching residue, C=CCCCC(CCCC=C)(N[*:1])C(=O)[*:2]; B5(6) = 2-amino-2-(pent-4-en-1-yl)hept-6-enoic acid (bis(4-pentenyl)glycine), stitching residue, C=CCCCC(CCCC=C)(N[*:1])C(=O)[*:2]; Phe(2-CONH2) = NC(=O)c1ccccc1C[C@H](N)C(=O)O; Phe(2-OMe) = COc1ccccc1C[C@H](N)C(=O)O; Bta = N[C@@H](Cc1csc2ccccc12)C(=O)O; αAllylPro = C=CC[C@@]1(C(=O)O)CCCN1; S8 = C=CCCCCCC[C@](C)(N)C(=O)O
Labelling: IC50 reported below 100 nM becomes Yes; at or above becomes No.

In the record for Ac-[αAllylPro]DA[B5(20)]DEAAFQ[S8]F[Bta]T-NH2 (staple 1-4, 4-11; also: later-eluting HPLC peak of staple isomers) [I-508] , is IC50 less than 100 nM?
Yes

In the record for Ac-[αAllylPro]DI[B5(20)]DEAAFN[S8][Phe(2-CONH2)][Bta]H-NH2 (staple 1-4, 4-11, Stapled peptide composition) [I-514] , is IC50 less than 100 nM?
Yes

In the record for Ac-[αAllylPro]DL[B5(6)]DEAAFQ[S8]F[Bta]Q-NH2 (staple 1-4, 4-11, Stapled peptide composition) [I-505] , is IC50 less than 100 nM?
Yes

In the record for Ac-[αAllylPro]DI[B5(20)]DEAAFN[S8][Phe(2-OMe)][Bta]H-NH2 (staple 1-4, 4-11, Stapled peptide composition) [I-512] , is IC50 less than 100 nM?
Yes

In the record for Ac-[αAllylPro]DA[B5(20)]DEAAFN[S8][Phe(2-CONH2)][Bta]H-NH2 (staple 1-4, 4-11, Stapled peptide composition) [I-513] , is IC50 less than 100 nM?
No

In the record for XDAXDEAAFQXFXT (not fully specified; Ac-PL3-Asp-Ala-B5-Asp-Glu-Ala-Ala-Phe-Gln-S8-Phe-BztA-Thr-NH2; stapled by olefin metathesis (PL3-B5 and B5-S8)) [I-507] , is IC50 less than 100 nM?
No

In the record for Ac-[αAllylPro]DL[B5(6)]DEAAFQ[S8]F[Bta]H-NH2 (staple 1-4, 4-11, Stapled peptide composition) [I-506] , is IC50 less than 100 nM?
Yes

In the record for XDIXDEAAFQXFXQ (not fully specified; Ac-PL3-Asp-Ile-B5-Asp-Glu-Ala-Ala-Phe-Gln-S8-2OMeF-BztA-Gln-NH2; stapled by olefin metathesis (PL3-B5 and B5-S8)) [I-528] , is IC50 less than 100 nM?
Yes
